B1: NELF-E aptamer (parent)
chain: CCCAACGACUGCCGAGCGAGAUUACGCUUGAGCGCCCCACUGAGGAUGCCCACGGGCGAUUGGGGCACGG

Variants of: B1
Experiment: HiTS-RAP
Details: with NELF-E (Drosophila)
Criterion: Kd strictly under 6 nM. Met: Criterion met. Not met: Criterion not met.

Solved entries:
| change | class label |
| --- | --- |
| A8G A15G | Criterion not met |
| G11U G65U | Criterion not met |
| U10G U29A | Criterion met |
| U28G U41G | Criterion met |
| C13U C25G | Criterion met |
| U29G C38U | Criterion not met |

Hi there! Is Kd for A4G G16U below 6 nM, do you know? Criterion not met

Hi there! Is Kd for C6G C9U below 6 nM, do you know? Criterion met

Hi there! Is Kd for A52G C53U below 6 nM, do you know? Criterion not met

Hi there! Is Kd for C27U U28G below 6 nM, do you know? Criterion met

Hi there! Is Kd for A5U A24U below 6 nM, do you know? Criterion not met

Hi there! Is Kd for G14U G18U below 6 nM, do you know? Criterion not met

Hi there! Is Kd for U10A G14A below 6 nM, do you know? Criterion not met

Hi there! Is Kd for C12G C40U below 6 nM, do you know? Criterion not met

Hi there! Is Kd for A8G C66U below 6 nM, do you know? Criterion met

Hi there! Is Kd for U41A A67U below 6 nM, do you know? Criterion not met

Hi there! Is Kd for A8U C50U below 6 nM, do you know? Criterion not met

Hi there! Is Kd for U29G A52U below 6 nM, do you know? Criterion not met

Hi there! Is Kd for A8C U10G below 6 nM, do you know? Criterion not met

Hi there! Is Kd for A8G G34A below 6 nM, do you know? Criterion met

Hi there! Is Kd for G16A C17G below 6 nM, do you know? Criterion not met

Hi there! Is Kd for G11U A59G below 6 nM, do you know? Criterion not met

Hi there! Is Kd for C9G G56A below 6 nM, do you know? Criterion not met

Hi there! Is Kd for A67G below 6 nM, do you know? Criterion met

Hi there! Is Kd for G64A A67G below 6 nM, do you know? Criterion met

Hi there! Is Kd for G18U U23G below 6 nM, do you know? Criterion not met

Hi there! Is Kd for C6G G20A below 6 nM, do you know? Criterion not met
